Recorded IC50, one value per entry.
- Study system: Virion infectivity factor (Human immunodeficiency virus type 1 group M subtype B (isolate BH10)) + Virion infectivity factor (Human immunodeficiency virus type 1 group M subtype B (isolate BRU/LAI)) + Virion infectivity factor (Human immunodeficiency virus type 1 group M subtype B (isolate PCV12)) + Virion infectivity factor (Human immunodeficiency virus type 1 group M subtype B (isolate HXB2)) + DNA dC->dU-editing enzyme APOBEC-3G (Homo sapiens) (UniProt P69720+P69721+P69722+P69723+Q9HC16)
- Method summary: HIV-1 Vif–A3G interaction blockers – biochemical, TR-FRET, GST-Vif 1-94, biotin-A3G peptide, dose response retest, primary screen (AID 1117319);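 also: Vif residues 1-94 fused to GST binding biotinylated APOBEC3G peptide 110-148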
- Experimental conditions: TR-FRET GST-Vif / biotin-A3G peptide binding
Records with an inconclusive call do not appear.

| Compound | IC50 |
| --- | --- |
| O=C(Nc1ccn(-c2ccccc2)n1)c1ccccc1Br | 10.6 µM |
| COc1cc(/C=C/C=C2/CC/C(=C/C=C/c3ccc(O)c(OC)c3)C2=O)ccc1O | 4.03 µM |
| CC(=O)Nc1ccc(S(=O)(=O)NCCSCc2ccco2)cc1 | 15.3 µM |
| COc1ccc2c(c1)c1ccc3c(c1n2C)C(=O)C=CC3=O | 2.42 µM |
| O=C1NC(=O)C(=Cc2ccc(SC3CCCCC3)o2)C(=O)N1 | 29 µM |
| COC(=O)c1ccc(C(=O)OC)c(NC(=O)Cc2cccs2)c1 | 4.22 µM |

Now let's try a different one.
Problem: For COC/C=C/C1=CC2=CC(=O)C(C)(OC(=O)C3CCCC3)C(=O)C2=CO1 (configuration not stated) , what is its reported IC50?
Solution: 2.75 µM

* * *

- Study system: Virion infectivity factor (Human immunodeficiency virus type 1 group M subtype B (isolate BH10)) + Virion infectivity factor (Human immunodeficiency virus type 1 group M subtype B (isolate BRU/LAI)) + Virion infectivity factor (Human immunodeficiency virus type 1 group M subtype B (isolate PCV12)) + Virion infectivity factor (Human immunodeficiency virus type 1 group M subtype B (isolate HXB2)) + DNA dC->dU-editing enzyme APOBEC-3G (Homo sapiens) (UniProt P69720+P69721+P69722+P69723+Q9HC16)
- Method summary: HIV-1 Vif–A3G interaction blockers – biochemical, TR-FRET, GST-Vif 1-94, biotin-A3G peptide, dose response retest, primary screen (AID 1117319);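 also: Vif residues 1-94 fused to GST binding biotinylated APOBEC3G peptide 110-148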
- Experimental conditions: TR-FRET GST-Vif / biotin-A3G peptide binding
Inconclusive results are not listed.
Measured endpoint: IC50

| Molecule | IC50 |
| --- | --- |
| Cc1cc(S(=O)(=O)N(Cc2ccccn2)Cc2ccco2)ccc1-n1cnnn1 | 83.6 µM |

Problem: For O=C(CSc1nc2cc([N+](=O)[O-])ccc2n1-c1ccccc1)NCc1ccc2c(c1)OCO2 , what is its reported IC50?
Solution: 46.6 µM

Problem: For Oc1ccc(C2Nc3cccc4cccc(c34)N2)c(O)c1 , what is its reported IC50?
Solution: 17.5 µM

* * *

Recorded IC50, one value per entry.
- Study system: Virion infectivity factor (Human immunodeficiency virus type 1 group M subtype B (isolate BH10)) + Virion infectivity factor (Human immunodeficiency virus type 1 group M subtype B (isolate BRU/LAI)) + Virion infectivity factor (Human immunodeficiency virus type 1 group M subtype B (isolate PCV12)) + Virion infectivity factor (Human immunodeficiency virus type 1 group M subtype B (isolate HXB2)) + DNA dC->dU-editing enzyme APOBEC-3G (Homo sapiens) (UniProt P69720+P69721+P69722+P69723+Q9HC16)
- Method summary: HIV-1 Vif–A3G interaction blockers – biochemical, TR-FRET, GST-Vif 1-94, biotin-A3G peptide, dose response retest, primary screen (AID 1117319);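 also: Vif residues 1-94 fused to GST binding biotinylated APOBEC3G peptide 110-148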
- Experimental conditions: TR-FRET GST-Vif / biotin-A3G peptide binding
Results filed as inconclusive are left out.

| Compound | IC50 |
| --- | --- |
| O=c1cc(CO)oc(C(Nc2ccccn2)c2ccc(F)cc2)c1O (centres undefined) | 85.7 µM |

Problem: For Cc1ccc(/C=C/C(=O)Nc2ccc([N+](=O)[O-])c(NC(=O)/C=C/c3ccc(C)o3)c2)o1 , what is its reported IC50?
Solution: 1.49 µM

Problem: For COc1ccc(NS(=O)(=O)c2cccc(Cl)c2Cl)cc1S(=O)(=O)N1CCCCC1 , what is its reported IC50?
Solution: 76.1 µM

Problem: For CCOC(=O)/C=C1\SCC(=O)N1CC(=O)NC(C)c1ccc(F)cc1 (centres undefined) , what is its reported IC50?
Solution: 28.8 µM
